FYI, the data here is from PubChem BioAssay (NCI).

Tested on: TK-10 renal
ASSAY: NCI tumour cell line growth inhibition, 48 h
Examples of molecules with documented GI50 follow.

MOLECULE	GI50
Cc1ccc(-n2c3c(c4c(CN(C)C)c(O)ccc42)CCc2ccccc2C3=O)cc1	18.9 µM
CCOc1ccc(-c2nonc2NC(=O)c2cccc(C)c2)cc1OCC	22.7 µM
CCn1c(CN2CCN(Cc3ccccc3)CC2)nc2cc(NC(=O)c3cccs3)ccc21	24 µM
O=c1ccc2nc(-c3ccccc3)nn(-c3ccccn3)c-2c1	1.71 µM
O=C(CNc1ccc2c(c1)C(=O)c1ccccc1C2=O)Nc1ccc2c(c1)C(=O)c1ccccc1C2=O	1.7 µM
O=C(/C=C/c1cccnc1)NCCCCC1CCCN(C(=O)c2ccccc2)C1 (stereo unspecified)	> 100 µM
NC(N)=N/N=C\c1cccc(OCc2ccccc2)c1	12.6 µM
COc1cc(-c2nn(-c3cccc(NC(=O)Nc4cc(C(F)(F)F)cc(C(F)(F)F)c4)c3)cc2-c2ccncc2)ccc1Cl	0.719 µM
N#Cc1nc2c(S(=O)(=O)c3ccccc3)c(N)n(Cc3cccnc3)c2nc1C#N	26.1 µM
c1ccc2[nH]c(-c3ccc(NN=Nc4ccncc4)cc3)nc2c1	52.5 µM
CC(C)(C)c1nn(-c2ccccc2)c2c1C(=O)CSC(c1ccccc1Cl)N2 (stereo unspecified)	11.1 µM

###

Tested on: HCT-116 colon
ASSAY: NCI tumour cell line growth inhibition, 48 h; in the data active = GI50 below about 0.43 µM; inactive = the rest
Outcomes: active, inactive

MOLECULE	TARGET_SYSTEM	LABEL_VALUE
COC(=O)c1c2c(c(C)[n+]([O-])c1C)C(=O)C=C(NCc1ccc(F)c(Cl)c1)C2=O	HCT-116 colon	active
O=C(CNc1ccc2c(c1)C(=O)c1ccccc1C2=O)Nc1ccc2c(c1)C(=O)c1ccccc1C2=O	HCT-116 colon	active
N#Cc1nc2c(S(=O)(=O)c3ccccc3)c(N)n(Cc3cccnc3)c2nc1C#N	HCT-116 colon	inactive
c1ccc2[nH]c(-c3ccc(NN=Nc4ccncc4)cc3)nc2c1	HCT-116 colon	inactive
CCc1c(C#N)c(S[C@@H](C(N)=O)c2ccccc2)nc(N(C)C)c1C#N	HCT-116 colon	inactive
CCOC(=O)c1[nH]c(Br)c(-c2ccc(Br)cc2)c1Br	HCT-116 colon	inactive
O=C1c2cc3c(cc2-c2c1c1ccc(Cl)cc1c(=O)n2CCCNCCO)OCO3	HCT-116 colon	active
O=C(CN1CCN(CCCOc2c(-c3ccccc3)oc3ccccc3c2=O)CC1)Nc1ccc(Cl)cc1C(=O)c1ccccc1Cl	HCT-116 colon	inactive
CCCc1cc2c(=O)c(C(=O)OC)c[nH]c2cc1N(CC)CC	HCT-116 colon	inactive
O=c1ccn(C2OC(CO/N=C/c3ccc(O)c(O)c3O)C(O)C2O)c(=O)[nH]1 (stereo not drawn)	HCT-116 colon	inactive
COC1CC2CCC(C)C(O)(O2)C(=O)C(=O)N2CCCCC2C(=O)OC(C(C)CC2CCC(O)C(OC)C2)CC(=O)C(C)C=C(C)C(O)C(OC)C(=O)C(C)CC(C)/C=C/C=C/C=C1C (stereo not drawn)	HCT-116 colon	inactive
C=C1C(=O)O[C@H]2[C@H]1CC/C(Cn1cc(-c3cc(C(F)(F)F)cc(C(F)(F)F)c3)nn1)=C\CC[C@@]1(C)O[C@@H]21	HCT-116 colon	active
Cc1ccc(-n2c3c(c4c(CN(C)C)c(O)ccc42)CCc2ccccc2C3=O)cc1	HCT-116 colon	inactive
O=C(/C=C/c1cccnc1)NCCCCC1CCCN(C(=O)c2ccccc2)C1 (stereo not drawn)	HCT-116 colon	active
CCn1c(CN2CCN(Cc3ccccc3)CC2)nc2cc(NC(=O)c3cccs3)ccc21	HCT-116 colon	inactive
O=c1c2ccccc2n(C[C@H]2CO2)c2ccccc12	HCT-116 colon	inactive
O=C(c1ccco1)c1nc2cc(Cl)ccc2[n+]([O-])c1C(F)(F)F	HCT-116 colon	inactive
CC(=O)[CH-]C(=O)c1ccccc1.CC(=O)[CH-]C(=O)c1ccccc1.CC1(C)C2CCC1(C)C([O-])C2.CC1(C)C2CCC1(C)C([O-])C2.[Ti+4]	HCT-116 colon	inactive

###

Tested on: LXFL 529 NSCLC
ASSAY: NCI tumour cell line growth inhibition, 48 h
OBSERVED_PROPERTY: TGI

COMPOUND	OBSERVED_PROPERTY	REPORTED
CCOc1ccccc1NC(=O)CC1SC(=Nc2ccc([N+](=O)[O-])cc2)NC1=O (stereo not given)	TGI	39.9 µM
COC(=O)/C([Se]c1c(C)cc(C)cc1C)=C(\[Se]c1c(C)cc(C)cc1C)C(=O)OC	TGI	> 100 µM
COc1ccc(C(=O)Cc2c(C(=O)c3ccccc3)c3ccccc3n2C(=O)c2ccccc2)cc1	TGI	> 100 µM
CCOC(=O)N1CCc2cc(OC)c(OC)c3c2c1cc1cc(OC)c(OC)cc13	TGI	> 100 µM
CCC/C(=N/NC(=O)C(N)=O)C(CC)C(=O)CCC(=O)N(Cc1ccccc1)Cc1ccccc1 (stereo not given)	TGI	> 100 µM
CC(=O)[CH-]C(=O)c1ccccc1.CC(=O)[CH-]C(=O)c1ccccc1.[Eu+3].[OH-].[OH3+]	TGI	> 100 µM
O=C1CCC(=O)N1Cc1ccccc1N=[N+]([O-])c1ccccc1CN1C(=O)CCC1=O	TGI	> 100 µM
N#CC(C(=O)/C(=N/N)C(C#N)c1ccccc1)c1ccccc1 (stereo not given)	TGI	> 100 µM
CC(=O)OC(C)C1C2=C(C(=O)CC1(C)O)C(=O)c1c(ccc(-c3ccc4c(c3O)C(=O)C3=C(C4=O)C(C(C)OC(C)=O)C(C)(O)CC3=O)c1O)C2=O (stereo not given)	TGI	1.51 µM
CC1(c2cccc3ccccc23)OC(=O)c2ccccc21 (stereo not given)	TGI	> 100 µM
CC(C)c1ccc(C2C3=C(N=C4SCC(=O)N42)C(=O)c2ccccc23)cc1 (stereo not given)	TGI	> 100 µM
CCCCCCCCCCCCCC(=O)CC(=O)c1c(O)cccc1O	TGI	> 100 µM
CCCCCC/C=C1\CCC(CN2CCCC2)C1=O (stereo not given)	TGI	11.4 µM
Clc1cc(Cc2cc(Cl)c(Cl)c3c2OCOC3)c2c(c1Cl)COCO2	TGI	> 100 µM
COC(=O)C(=O)OC1(C(C)=O)CC2(c3ccccc3)OC1(c1ccccc1)c1ccccc12 (stereo not given)	TGI	49.2 µM

###

Reported TGI values follow for various compounds
Tested on: K-562 leukemia
ASSAY: NCI tumour cell line growth inhibition, 48 h

COMPOUND	TGI
N#C/C(=C/c1ccc[nH]1)P(=O)(O)O	> 100 µM
CC(=O)[CH-]C(=O)c1ccccc1.CC(=O)[CH-]C(=O)c1ccccc1.CC(C)CCCC(C)[C@H]1CCC2[C@@H]3CC=C4C[C@@H]([O-])CC[C@]4(C)C3CC[C@@]21C.CC[O-].[Ti+4] (stereo partly specified)	> 100 µM
N=C(N)N1CCC(N2CCOCC2)CC1	> 100 µM
Cc1cc2nc3c4cc(N)ccc4n(CCN(C)C)c3nc2cc1C	8.98 µM
CC(=O)Nc1ccc(NC(=O)c2c(Cl)c(Cl)c(Cl)c(Cl)c2-c2nc3ccccc3[nH]2)cc1	> 100 µM
COC(=O)c1ccccc1CC1Cc2ccc3c(c2C1)CCC3 (stereo unspecified)	> 100 µM
C/C(=N\Nc1cc(C)c2cc(C)ccc2n1)c1ccccn1	1.43 µM
N#Cc1nc2c(S(=O)(=O)c3ccccc3)c(N)n(Cc3cccnc3)c2nc1C#N	> 100 µM
CC(C)(C)N1C(C(=O)c2ccccc2)C1c1ccccc1 (stereo unspecified)	> 100 µM
CC(C)(C)OC(=O)c1cnc(Cl)cn1	> 100 µM
Nc1c(Br)cc(Br)c2c1[nH]c(=O)c1ccccc12	> 100 µM
CC1(C)O[C@@H]2[C@@H](COC(=O)c3ccccc3)C[C@@H](C#N)[C@@H]2O1	> 100 µM
Nc1nc(N)c(NC(=O)CCCO)c(=O)[nH]1	> 100 µM
Nc1ncnc2c1nc(Cl)n2C1OC2COP(=O)(O)OC2C1O (stereo unspecified)	> 300 µM
O=C(CC(C(=O)c1cccs1)c1ccsc1)c1cccs1 (stereo unspecified)	> 100 µM
C=C1C(=O)O[C@H]2[C@H]1CC/C(Cn1cc(-c3cc(C(F)(F)F)cc(C(F)(F)F)c3)nn1)=C\CC[C@@]1(C)O[C@@H]21	0.601 µM
Cc1ccc(NC(=O)CSc2nc(C)nc3c2sc(=S)n3-c2ccccc2)cc1	> 10 µM
COc1c(OC)c(OC)c2c(c1OC)c(=O)c1ccccc1n2C	> 100 µM
C=CCN1C(=O)/C(=C/c2ccc(OC)cc2)NC1=S	> 100 µM
O=C(CC(C(=O)c1ccco1)c1ccsc1)c1ccco1 (stereo unspecified)	> 100 µM
Oc1ccccc1/C=N/Nc1nc(N/N=C/c2ccccc2O)nc(N/N=C/c2ccccc2O)n1	> 100 µM

###

# TGI values compiled below
Test system: COLO 205 colon
ASSAY: NCI tumour cell line growth inhibition, 48 h

MOLECULE	TGI
COC(=O)c1ccccc1C1CN=NC12Cc1ccc(C)c(C)c1C2=O (configuration not stated)	> 100 µM
CCC/C(=N/NC(=O)C(N)=O)C(CC)C(=O)CCC(=O)N(Cc1ccccc1)Cc1ccccc1 (configuration not stated)	> 100 µM
Cc1sc2nc(-c3ccc(Cl)c([N+](=O)[O-])c3)c(/C=N/N=C(N)N)n2c1C	1.31 µM
COc1ccc2nc3ccc(OC)cc3c(SCc3ccc([N+](=O)[O-])cc3)c2c1	> 100 µM
COc1cc(C)c(/C=C/C(=O)N2C(=O)OC[C@@H]2c2ccccc2)c(C)c1	> 100 µM
CCC1(c2c(F)c(F)c(N)c(F)c2F)CCC(=O)NC1=O (configuration not stated)	> 100 µM
C/C(=N\Nc1cc(C)c2cc(C)ccc2n1)c1ccccn1	1.17 µM
CN(C)c1ccc([O][Bi]([Cl])[Cl])cc1	> 100 µM
O=c1ccn(C2OC(CO/N=C/c3ccc(O)c(O)c3O)C(O)C2O)c(=O)[nH]1 (configuration not stated)	30.6 µM
CSc1nc(Cl)c(Br)c(Sc2nc(N)nc3nc[nH]c23)n1	33.8 µM
Cc1c(C)c2c(c(N)c1C#N)C(=O)N(Nc1ccccc1)C2=O	> 100 µM
C/C(=N/Nc1nc2ccccc2n1C)c1ccccn1	10.9 µM
CC(C)=CCNc1ncnc2nc[nH]c12	> 100 µM
C=CC[N+]12CN3CN(CN(C3)C1)C2	65.9 µM
N#Cc1c(NN)nc(NN)c(C#N)c1-c1ccccc1	> 100 µM
N/C(=C\c1ccc(OCc2ccccc2)c(OCc2ccccc2)c1[N+](=O)[O-])C(=O)O	> 100 µM
O=C(O)CN1CCN2CCOCCOCCN(CC1)CCN(CC(=O)O)CC2	> 100 µM
CCC/C(=N/N=C(N)N)c1ccc(NC(=O)c2cc3cc(OC)ccc3[nH]2)cc1	30 µM
C=CC(=O)N1CCN(c2nc(=O)n(-c3c(C)ccnc3C(C)C)c3nc(-c4c(O)cccc4F)c(F)cc23)[C@@H](C)C1	> 100 µM
COc1cc(OC)c2c(=O)cc(-c3ccccc3F)[nH]c2c1	> 100 µM
Cc1cc2nc(CCC(=O)O)c(=O)[nH]c2cc1C	> 100 µM
COc1c(C)c2c(c(=O)c3c(C)cccc3n2C)c2c1c(=O)c1c(C)cccc1n2C	> 10 µM
